Recorded values, source patent US11964971B2.

# Tested on: MDR1-MDCK cell monolayers
# condition-info: dog, MDCK-MDR1, 120 min, 5 μM, pH 7.4
observation-type: MDCK-MDR1: % Recov A-B (%)

compound: CN(c1cnc(-c2cc(F)c(-c3ccn(C)c(=O)c3)cc2O)cn1)[C@@H]1CC2CCC[C@H](N2)[C@@H]1F (single isomer, unassigned)
result: 78%
//
compound: Oc1cc(-n2ccnn2)c(F)cc1-c1cnc(N(C2CC2)[C@@H]2CC3CC[C@H](N3)[C@@H]2F)cn1 (single isomer, unassigned)
result: 74%
//
compound: Cn1cc(-c2cc(O)c(-c3cnc(N(C4CC4)[C@@H]4C[C@H]5CC[C@H](N5)[C@@H]4F)cn3)cc2F)cn1
result: 36%
//
compound: CN(c1cnc(-c2ccc(-c3cc[nH]c(=O)c3)cc2O)cn1)[C@@H]1CC2CC[C@H](N2)[C@@H]1F (single isomer, unassigned)
result: 89%
//
compound: Oc1cc(-c2cn[nH]c2)c(F)cc1-c1cnc(N(C2CC2)[C@H]2C[C@@H]3CCC(N3)[C@H]2F)cn1 (single isomer, unassigned)
result: 54%
//
compound: Cn1cnc(-c2cc(O)c(-c3cnc(N(C4CC4)[C@H]4C[C@@H]5CCC(N5)[C@H]4F)cn3)cc2F)cc1=O (single isomer, unassigned)
result: 81%
//
compound: COc1cc(-c2cc(O)c(-c3cnc(N(C)[C@@H]4C[C@@]5(C)CC[C@](C)(N5)[C@@H]4F)cn3)cc2F)cnn1 (single isomer, unassigned) [Compound 64E2]
result: 69%
//
compound: CN(c1cnc(-c2cc(F)c(-c3ccn(CF)c(=O)c3)cc2O)cn1)[C@@H]1C[C@H]2CC[C@H](N2)[C@@H]1F
result: 101%
//
compound: CN(c1cnc(-c2ccc(-c3cnn(C)c3)cc2O)cn1)[C@H]1C[C@@H]2COCC(N2)[C@H]1F (single isomer, unassigned)
result: 51%
//
compound: CN(c1cnc(-c2cc3ccc(OCF)nc3cc2O)cn1)[C@H]1C[C@@H]2CCC(N2)[C@H]1F (single isomer, unassigned)
result: 28%
//
compound: CN(c1cnc(-c2cc(F)c(-c3ccn(C)c(=O)c3)cc2O)cn1)[C@H]1C[C@@H]2CCC(N2)[C@H]1F (single isomer, unassigned)
result: 80%
